The following compounds are listed with their measured Post-emergence herbicidal activity, percentage phytotoxicity, ALOMY values.
Test system: Alopecurus myosuroides (ALOMY)
experiment_notes: Test 1B glasshouse assay, post-emergence herbicidal activity against grassy weeds
Type: in vivo
run_conditions: 60 g/ha herbicide, 50 g/ha cloquintocet-mexyl, 14 DAA
measured_metric: Post-emergence herbicidal activity, percentage phytotoxicity, ALOMY (%)

INSERT INTO measurements (compound, study_target, endpoint_result) VALUES
  ('Cc1cc(C)c(C2C(=O)C[C@H](CCNC(=O)c3cc(Cl)ccn3)C2=O)c(C)c1 (stereo partly shown)', 'Alopecurus myosuroides (ALOMY)', 35),
  ('Cc1cc(C)c(C2C(=O)C[C@H](CCNC(=O)c3cccc(F)n3)C2=O)c(C)c1 (stereo partly shown)', 'Alopecurus myosuroides (ALOMY)', 25),
  ('Cc1cc(C)c(C2C(=O)CC(CCNC(=O)c3ccc(Br)cn3)C2=O)c(C)c1 (racemic)', 'Alopecurus myosuroides (ALOMY)', 80),
  ('Cc1cc(C)c(C2C(=O)CC(CCNC(=O)c3cccc(F)n3)C2=O)c(C)c1 (racemic)', 'Alopecurus myosuroides (ALOMY)', 98),
  ('CCc1cc(-n2cc(Cl)cn2)cc(C)c1C1C(=O)C[C@H](CCNC(=O)c2ccccn2)C1=O (stereo partly shown)', 'Alopecurus myosuroides (ALOMY)', 55),
  ('CCc1cc(-n2cc(Cl)cn2)cc(C)c1C1C(=O)CC(CCNC(=O)c2ccccn2)C1=O (stereo not shown)', 'Alopecurus myosuroides (ALOMY)', 95),
  ('Cc1cc(C)c(C2C(=O)C[C@@H](CCNC(=O)c3cc(Cl)ccn3)C2=O)c(C)c1 (stereo partly shown)', 'Alopecurus myosuroides (ALOMY)', 68),
  ('Cc1cc(C)c(C2C(=O)C[C@@H](CCNC(=O)c3ccc(Br)cn3)C2=O)c(C)c1 (stereo partly shown) [Compound A120A]', 'Alopecurus myosuroides (ALOMY)', 90),
  ('Cc1cc(C)c(C2C(=O)C[C@@H](CCNC(=O)c3cccc(F)n3)C2=O)c(C)c1 (stereo partly shown)', 'Alopecurus myosuroides (ALOMY)', 98),
  ('CCc1cc(-n2cc(Cl)cn2)cc(C)c1C1C(=O)C[C@@H](CCNC(=O)c2ccccn2)C1=O (stereo partly shown)', 'Alopecurus myosuroides (ALOMY)', 78),
  ('Cc1cc(C)c(C2C(=O)C[C@H](CCNC(=O)c3ccc(Br)cn3)C2=O)c(C)c1 (stereo partly shown) [Compound A120B]', 'Alopecurus myosuroides (ALOMY)', 70),
  ('Cc1cc(-n2cc(Cl)cn2)cc(C)c1C1C(=O)CC(CCNC(=O)c2ccccn2)C1=O (racemic)', 'Alopecurus myosuroides (ALOMY)', 73),
  ('Cc1cc(C)c(C2C(=O)CC(CCNC(=O)c3cc(Cl)ccn3)C2=O)c(C)c1 (racemic)', 'Alopecurus myosuroides (ALOMY)', 78);

###

Test system: Setaria viridis (SETVI)
experiment_notes: Test 1B glasshouse assay, post-emergence herbicidal activity against grassy weeds
Format: in vivo
run_conditions: 45 g/ha herbicide, 50 g/ha cloquintocet-mexyl, 14 DAA
measured_metric: Post-emergence herbicidal activity, percentage phytotoxicity, SETVI (%)

INSERT INTO measurements (molecule, endpoint_result) VALUES
  ('Cc1cc(C)c(C2C(=O)C[C@@H](CCNC(=O)c3ccc(Br)cn3)C2=O)c(C)c1 (stereo partly shown) [Compound A120A]', 100),
  ('Cc1cc(C)c(C2C(=O)CC(CCNC(=O)c3ccc(Br)cn3)C2=O)c(C)c1 (racemic)', 100),
  ('CCc1cc(-n2cc(Cl)cn2)cc(C)c1C1C(=O)C[C@H](CCNC(=O)c2ccccn2)C1=O (stereo partly shown)', 35),
  ('Cc1cc(C)c(C2C(=O)C[C@H](CCNC(=O)c3ccc(Br)cn3)C2=O)c(C)c1 (stereo partly shown) [Compound A120B]', 65),
  ('Cc1cc(C)c(C2C(=O)C[C@@H](CCNC(=O)c3cc(Cl)ccn3)C2=O)c(C)c1 (stereo partly shown)', 99),
  ('Cc1cc(C)c(C2C(=O)C[C@H](CCNC(=O)c3cccc(F)n3)C2=O)c(C)c1 (stereo partly shown)', 40),
  ('CCc1cc(-n2cc(Cl)cn2)cc(C)c1C1C(=O)C[C@@H](CCNC(=O)c2ccccn2)C1=O (stereo partly shown)', 99),
  ('Cc1cc(C)c(C2C(=O)C[C@@H](CCNC(=O)c3cccc(F)n3)C2=O)c(C)c1 (stereo partly shown)', 100),
  ('Cc1cc(C)c(C2C(=O)C[C@H](CCNC(=O)c3cc(Cl)ccn3)C2=O)c(C)c1 (stereo partly shown)', 43),
  ('Cc1cc(C)c(C2C(=O)CC(CCNC(=O)c3cccc(F)n3)C2=O)c(C)c1 (racemic)', 100);

###

Tested on: Avena fatua (AVEFA)
experiment_notes: Test 1B glasshouse assay, post-emergence herbicidal activity against grassy weeds
Format: in vivo
run_conditions: 45 g/ha herbicide, 50 g/ha cloquintocet-mexyl, 14 DAA
Here the recorded Post-emergence herbicidal activity, percentage phytotoxicity, AVEFA is given for each entry.
measured_metric: Post-emergence herbicidal activity, percentage phytotoxicity, AVEFA (%)

INSERT INTO assay_data (compound, study_target, value_units, endpoint_result) VALUES
  ('Cc1cc(C)c(C2C(=O)C[C@H](CCNC(=O)c3cc(Cl)ccn3)C2=O)c(C)c1 (stereo partly shown)', 'Avena fatua (AVEFA)', '%', 3),
  ('CCc1cc(-n2cc(Cl)cn2)cc(C)c1C1C(=O)C[C@H](CCNC(=O)c2ccccn2)C1=O (stereo partly shown)', 'Avena fatua (AVEFA)', '%', 88),
  ('Cc1cc(C)c(C2C(=O)CC(CCNC(=O)c3ccc(Br)cn3)C2=O)c(C)c1 (racemic)', 'Avena fatua (AVEFA)', '%', 78),
  ('Cc1cc(C)c(C2C(=O)C[C@H](CCNC(=O)c3cccc(F)n3)C2=O)c(C)c1 (stereo partly shown)', 'Avena fatua (AVEFA)', '%', 3),
  ('Cc1cc(C)c(C2C(=O)C[C@@H](CCNC(=O)c3cc(Cl)ccn3)C2=O)c(C)c1 (stereo partly shown)', 'Avena fatua (AVEFA)', '%', 80),
  ('Cc1cc(C)c(C2C(=O)C[C@H](CCNC(=O)c3ccc(Br)cn3)C2=O)c(C)c1 (stereo partly shown) [Compound A120B]', 'Avena fatua (AVEFA)', '%', 10),
  ('Cc1cc(C)c(C2C(=O)C[C@@H](CCNC(=O)c3cccc(F)n3)C2=O)c(C)c1 (stereo partly shown)', 'Avena fatua (AVEFA)', '%', 94),
  ('CCc1cc(-n2cc(Cl)cn2)cc(C)c1C1C(=O)C[C@@H](CCNC(=O)c2ccccn2)C1=O (stereo partly shown)', 'Avena fatua (AVEFA)', '%', 100),
  ('Cc1cc(C)c(C2C(=O)C[C@@H](CCNC(=O)c3ccc(Br)cn3)C2=O)c(C)c1 (stereo partly shown) [Compound A120A]', 'Avena fatua (AVEFA)', '%', 95),
  ('Cc1cc(C)c(C2C(=O)CC(CCNC(=O)c3cccc(F)n3)C2=O)c(C)c1 (racemic)', 'Avena fatua (AVEFA)', '%', 85);

###

System: Alopecurus myosuroides (ALOMY)
experiment_notes: Test 1A glasshouse assay, pre-emergence herbicidal activity
Type: in vivo
run_conditions: 312 h, 250 g/ha, 13 days after application, read-out: Pre-emergence herbicidal activity (% phytotoxicity) ALOMY
List of inhibition at 250 g/ha values.
measured_metric: inhibition at 250 g/ha (%)

INSERT INTO measurements (compound, endpoint_result) VALUES
  ('CC#Cc1cc(C)c(C2C(=O)CC(CCNC(=O)c3ccccn3)C2=O)c(C)c1 (stereo not drawn)', 90),
  ('Cc1cc(C)c(C2C(=O)CC(CCNC(=O)c3cccc(F)n3)C2=O)c(C)c1 (racemic)', 100),
  ('Cc1cc(C)c(C2C(=O)CC(CCNC(=O)C(C)(C)C)C2=O)c(C)c1 (stereo not drawn)', 90),
  ('CCc1cc(-n2cc(Cl)cn2)cc(C)c1C1C(=O)CC(CCNC(=O)c2ccccn2)C1=O (stereo not drawn)', 100),
  ('Cc1cc(C)c(C2C(=O)CC(CCNC(=O)c3cc(Cl)ccn3)C2=O)c(C)c1 (racemic)', 90),
  ('Cc1cc(C)c(C2C(=O)CC(CCNC(=O)c3c(Cl)c(C)nn3C)C2=O)c(C)c1 (stereo not drawn)', 90),
  ('Cc1cc(C)c(C2C(=O)CC(CCNC(=O)c3ccc(Br)cn3)C2=O)c(C)c1 (racemic)', 90),
  ('Cc1cc(C)c(C2C(=O)CC(CCNC(=O)C3CCCCC3)C2=O)c(C)c1 (stereo not drawn)', 80),
  ('Cc1cc(C)c(C2C(=O)CC(CCNC(=O)c3ccc(F)cc3)C2=O)c(C)c1 (stereo not drawn)', 90),
  ('Cc1cc(C)c(C2C(=O)CC(CCNC(=O)c3c(Cl)nn(C)c3Cl)C2=O)c(C)c1 (stereo not drawn)', 90),
  ('Cc1cc(-c2ccc(F)cc2)cc(C)c1C1C(=O)CC(CCNC(=O)c2ccccn2)C1=O (stereo not drawn)', 100),
  ('Cc1cc(C)c(C2C(=O)CC(CCNC(=O)c3ccccn3)C2=O)c(C)c1 (stereo not drawn)', 90);
